Listed here: items and their measured activation at […].
- System: 15-PGDH luciferase fusion construct in Vaco503 reporter cell line
- Experiment Summary: 15-PGDH-luciferase fusion gene reporter induction, V503 cells
- Format: cell-based
- Applied Conditions: read-out: V503 reporter activity ([…]), […]; % induction over basal level; Table 17; read-out: V503 reporter activity (2.5 μM)

Smiles Notation: COc1ccc(N(CC(=O)Nc2cccc(Cl)c2)S(=O)(=O)c2ccc(OC)c(OC)c2)cc1
Val: 11.7%

Smiles Notation: COc1ccc(OC)c(NC(=O)CN(c2ccccc2)S(=O)(=O)c2cc(Br)ccc2OC)c1
Val: 0.78%

Smiles Notation: COc1ccc(OC)c(NC(=O)CN(c2ccc([N+](=O)[O-])cc2)S(=O)(=O)c2ccccc2)c1
Val: 13.1%

Smiles Notation: COc1ccc(OC)c(N(CC(=O)Nc2ccccc2Br)S(=O)(=O)c2ccc(C)cc2)c1
Val: 24.8%

Smiles Notation: COc1ccc(S(=O)(=O)N(CC(=O)Nc2ccc(Cl)cc2Cl)c2ccccc2)cc1
Val: -8.04%

Smiles Notation: CCc1ccccc1NC(=O)CN(c1ccc(OC)cc1OC)S(=O)(=O)c1ccccc1
Val: 17.2%

The molecule identified as `COc1ccc(OC)c(N(CC(=O)Nc2ccccc2Br)S(=O)(=O)c2ccc(OC)c(OC)c2)c1` registered its activation at […] at 20.2%

* * *

Listed here: items and their measured activation at […].
- Test system: 15-PGDH luciferase fusion construct in LS174T reporter cell line
- Experiment Summary: 15-PGDH-luciferase fusion gene reporter induction, LS174T cells
- Format: cell-based
- Applied Conditions: Homo sapiens, read-out: LS174T reporter activity ([…]), […], % increased luciferase activity over basal level, read-out: LS174T reporter activity (7.5 uM)
Note: unit % is implicit; provide only the numeric part.

Use the examples below as a reference point.
Compound: CCCCSc1ncccc1N
Target Or System: 15-PGDH luciferase fusion construct in LS174T reporter cell line
Val: 15
--
Compound: CCCCS(=O)(=O)c1sc2nc(-c3cccs3)cc(-c3ccccc3)c2c1N
Target Or System: 15-PGDH luciferase fusion construct in LS174T reporter cell line
Val: 40
--
Compound: CCOC(=O)c1sc2nc(-c3ccccc3)cc(-c3ccccc3)c2c1N
Target Or System: 15-PGDH luciferase fusion construct in LS174T reporter cell line
Val: -2.57

The compound identified as CCCC[S+]([O-])c1sc2nc(-c3cccs3)nc(-c3ccccc3)c2c1N (stereo not shown) registered its activation at […] at 79.6

The compound identified as CCCCCC[S+]([O-])c1sc2nc(-c3cccs3)cc(-c3ccccc3)c2c1N (stereo not shown) registered its activation at […] at 95.1

The compound identified as `CCCNC(=O)c1sc2nc(-c3cccs3)cc(-c3ccccc3)c2c1N` registered its activation at […] at 29.4

The compound identified as CCCC[S+]([O-])c1sc2nc(-c3ccccc3)nc(-c3ccccc3)c2c1N (stereo not shown) registered its activation at […] at 87.7

* * *

- Test system: 15-PGDH luciferase fusion construct in Vaco503 reporter cell line
- Experiment Summary: 15-PGDH-luciferase fusion gene reporter induction, V503 cells
- Assay type: cell-based
- Applied Conditions: read-out: V503-3H9-7 reporter activity, % ([…]), V503 reporter cells, […] compound; % induction of luciferase activity over basal level; read-out: V503-3H9-7 reporter activity, % (7.5 μM)
Listed here: items and their measured activation at […].
Note: unit % is implicit; provide only the numeric part.

The molecule identified as `COc1ccc(OC)c(N(CC(=O)N2CCCCCC2)S(=O)(=O)c2ccccc2)c1` registered its activation at […] at 138
